Readings of protein stability index for the listed variants
B1: MATN2 (parent)
chain: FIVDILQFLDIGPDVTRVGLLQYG

Variants of: B1
Assay: protein stability index of a GFP-peptide fusion (GPS, HEK-293T) (PSI 1-6); higher = more stable;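 further: lentivirally expressed fusions sorted by FACS into six bins by GFP to DsRed ratio, PSI derived from sequencing read proportions per bin multiplied by bin number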
Settings: c terminus: a fixed tail appended

Here is how some variants turned out for protein stability index.
Q7H 1.98
F8C 2.21
G12T 3.93
Q22V 3.57

May I ask what protein stability index has been recorded for `G24K` ?
1.81

Record request: protein stability index value, item `D4P`
5.01
